test_description: clinical
Type: in vivo
condition_context: human, plasma, oral, 500 mg; Subject B, CLT day 6; read-out: Levels Plasma
quantity_kind: concentration at 6 day of CLT dosing (nM)
Give bare numbers, in nM.

Data request: Fill blank: measured concentration at 6 day of CLT dosing of the molecule `OC(c1ccccc1)(c1ccccc1)c1ccccc1Cl` is ____.
Data returned: 1350

====

test_description: clinical
Assay type: in vivo
condition_context: human, plasma, oral, 500 mg; Subject B, Wash-out day 20; read-out: Levels Plasma
quantity_kind: concentration at 20 day (wash-out) (nM)
Answers are plain numbers, in nM.

Data request: Fill blank: measured concentration at 20 day (wash-out) of the compound OC(c1ccccc1)(c1ccccc1)c1ccccc1Cl [Compound 6, 2-chlorophenyl-diphenylmethanol] is ____.
Data returned: 0

====

system_name: Gardos channel of erythrocytes (Homo sapiens, UniProt O15554)
test_description: cell-based
condition_context: read-out: Gardos Channel % Inhibition
Would you kindly list inhibition at 10 µM for each of these compounds?
Answers are plain numbers, in %.

Below, each entry is followed by its recorded inhibition at 10 µM result.
* N#CCC(c1ccc(Cl)cc1)(c1ccc(Cl)cc1)c1ccc(Cl)cc1 | 10
* CCOC(=O)C(c1ccccc1)(c1ccccc1)N1CCCCC1 | 99
* COc1ccc(C(O)(c2ccccc2)c2ccc(OC)cc2)cc1 | 99.6
* OC(c1ccccc1)(c1ccccc1)c1ccccc1 | 97
* O=C1CC[C@@H](COC(c2ccccc2)(c2ccccc2)c2ccccc2)N1 | 97.9

Consider the following items and state reported inhibition at 10 µM for each.
1. OC(c1ccccc1)(c1ccccc1)C1CCCCC1
2. O=C(CBr)C(c1ccccc1)(c1ccccc1)c1ccccc1
3. OC(C#Cc1ccccc1)(c1ccccc1)c1ccccc1
4. OC(c1ccccc1)(c1ccccc1)c1ccccc1F
5. OCC(c1ccccc1)(c1ccccc1)c1ccccc1

Data returned:
1: 99; 2: 100; 3: 100; 4: 98.1; 5: 95.8

Consider the following items and state reported inhibition at 10 µM for each.
1. Cc1ccc(C(O)(c2ccc(C)cc2)c2ccc(C)cc2)cc1
2. NOC(c1ccccc1)(c1ccccc1)c1ccccc1
3. O=C(O)C(c1ccccc1)(c1ccccc1)c1ccccc1Cl
4. CCOC(=O)C(C(=O)OCC)C(c1ccccc1)(c1ccccc1)c1ccccc1
5. Oc1ccc(C(O)(c2ccccc2)c2ccccc2Cl)cc1 (stereo not shown)
6. Brc1ccc(C(c2ccccc2)c2ccc(Br)cc2)cc1
7. CCOC(=O)CNC(c1ccccc1)(c1ccccc1)c1ccccc1

Data returned:
1: 100; 2: 96.3; 3: 97; 4: 99; 5: 95.3; 6: 67.2; 7: 89

Consider the following items and state reported inhibition at 10 µM for each.
1. CC(=O)C(c1ccccc1)(c1ccccc1)c1ccccc1
2. NC(=O)CC(c1ccc(Cl)cc1)(c1ccc(Cl)cc1)c1ccc(Cl)cc1 [Compound 30, tris(4-chlorophenyl)propionamide]

Data returned:
1: 100; 2: 97

Consider the following items and state reported inhibition at 10 µM for each.
1. N#CC(c1ccccc1)(c1ccccc1)c1ccccc1F
2. COC(=O)CC(c1ccccc1)(c1ccccc1)c1ccccc1
3. NC(=O)CCC(c1ccccc1)(c1ccccc1)c1ccccc1
4. c1ccc(C(c2ccccc2)(c2ccccc2)[n+]2ccccc2)cc1
5. O=C1CC[C@@H](COC(c2ccccc2)(c2ccccc2)c2ccccc2)O1
6. O=C(O)CCC(c1ccccc1)(c1ccccc1)c1ccccc1

Data returned:
[95.7, 98, 95, 98.2, 97.9, 97.5]

Consider the following items and state reported inhibition at 10 µM for each.
1. COC(=O)c1ccc(C(O)(c2ccccc2)c2ccccc2)cc1
2. OCCC(c1ccccc1)(c1ccccc1)c1ccccc1
3. CCC(c1ccccc1)(c1ccccc1)c1ccc(O)cc1

Data returned:
1. 98
2. 82
3. 96.1

Consider the following items and state reported inhibition at 10 µM for each.
1. O=C(O)C(Cc1ccc2ccccc2c1)C(c1ccccc1)(c1ccccc1)c1ccccc1 (stereo not shown)
2. O=CCC(c1ccccc1)(c1ccccc1)c1ccccc1
3. Oc1ccccc1C(O)(c1ccccc1)c1ccccc1
4. CCOC(=O)C(C(=O)OCC)C(c1ccccc1)(c1ccccc1)c1ccccc1Cl
5. N#CC(c1ccccc1)(c1ccccc1)c1ccc([N+](=O)[O-])cc1Cl
6. N#CC(c1ccccc1)(c1ccccc1)c1ccccc1Cl

Data returned:
98
92
99
100
88
98.8

Consider the following items and state reported inhibition at 10 µM for each.
1. ClC(c1ccccc1)(c1ccccc1)c1ccccc1
2. CON(C)C(=O)CC(c1ccccc1)(c1ccccc1)c1ccccc1
3. N#CCc1ccc([Si](c2ccccc2)(c2ccccc2)c2ccccc2)cc1

Data returned:
1. 99.4
2. 91
3. 0.4

====

system_name: Gardos channel of erythrocytes (Homo sapiens, UniProt O15554)
test_description: cell-based
Would you kindly list IC50 for each of these compounds?
One number for each entry, in nM.

- CCOC(=O)C(C(=O)OCC)C(c1ccccc1)(c1ccccc1)c1ccccc1Cl: 125
- N#CC(c1ccccc1)(c1ccccc1)c1ccccc1Cl: 48
- O=C(O)CC(c1ccccc1)(c1ccccc1)c1ccccc1: 21800

Now examine the next entry.
Data request: Fill blank: measured IC50 of the compound `Cc1ccc(C(O)(c2ccc(C)cc2)c2ccc(C)cc2)cc1` is ____.
Data returned: 489

====

Would you kindly list melting point for each of these compounds?

* N#CC(c1ccccc1)(c1ccccc1)c1ccccc1F [Compound 32, (2-fluorophenyl)-diphenylacetonitrile] | 144 to 145 °C
* O=C(O)CC(c1ccccc1)(c1ccccc1)c1ccccc1Cl [Compound 36] | 180 to 182 °C
* NC(=O)CC(c1ccc(Cl)cc1)(c1ccc(Cl)cc1)c1ccc(Cl)cc1 [Compound 30, tris(4-chlorophenyl)propionamide] | 158 to 160 °C
* OC(c1ccccc1)(c1ccccc1)C1CCCCC1 [Compound 88, cyclohexyl-diphenylmethanol] | 76 to 78 °C
* OC(c1ccccc1)(c1ccccc1)c1ccccc1Cl [Compound 6, 2-chlorophenyl-diphenylmethanol] | 92 to 93.5 °C

Consider the following items and state reported melting point for each.
1. O=CC(c1ccccc1)(c1ccccc1)c1ccccc1 [Compound 16, triphenylacetaldehyde]
2. O=CC(c1ccccc1)(c1ccccc1)c1ccccc1Cl [Compound 15, 2-chlorophenyl-diphenylacetaldehyde]

Data returned:
1. 91 to 96 °C
2. 126 to 129 °C

Data request: Fill blank: measured melting point of the compound Oc1ccc(C(O)(c2ccccc2)c2ccccc2Cl)cc1 (centres unmarked) [Compound 84] is ____.
Data returned: 56.5 to 60 °C

====

Would you kindly list inhibition at 10 µM for each of these molecules?
system_name: Gardos channel of erythrocytes (Homo sapiens)
test_description: cell-based
condition_context: read-out: Gardos Channel % Inhibition
Give bare numbers, in %.

Below, each entry is followed by its recorded inhibition at 10 µM result.
• CC(=O)CC(c1ccccc1)(c1ccccc1)c1ccccc1Cl = 99.5
• CCOC(c1ccccc1)(c1ccccc1)c1ccccc1 = 99.5
• NCCC(c1ccccc1)(c1ccccc1)c1ccccc1 = 100
• O=CC(c1ccccc1)(c1ccccc1)c1ccccc1Cl = 100
• CCOC(=O)C(C(=O)OCC)C(c1ccccc1)(c1ccccc1)c1ccccc1F = 98

Consider the following items and state reported inhibition at 10 µM for each.
1. OC(c1ccccc1)(c1ccccc1)c1ccc(Cl)cc1
2. O=C(O)CC(c1ccccc1)(c1ccccc1)c1ccccc1Cl
3. NCCC(c1ccc(Cl)cc1)(c1ccc(Cl)cc1)c1ccc(Cl)cc1

Data returned:
1: 99; 2: 78.6; 3: 97

Data request: Fill blank: measured inhibition at 10 µM of the molecule `c1ccc(N(c2ccccc2)c2ccccc2)cc1` is ____.
Data returned: 95.6

====

test_description: clinical
Type: in vivo
condition_context: human, plasma, oral, 500 mg; Subject A, Wash-out day 10; read-out: Levels Plasma
quantity_kind: concentration at 10 day (wash-out)

Data request: Fill blank: measured concentration at 10 day (wash-out) of the molecule `OC(c1ccccc1)(c1ccccc1)c1ccccc1Cl` is ____.
Data returned: < 100 nM

====

test_description: clinical
Format: in vivo
condition_context: human, plasma; Subject A, CLT day 3, oral CLT 500 mg every twelve hours; read-out: Levels Plasma
quantity_kind: concentration at 3 day of CLT dosing (nM)
One number for each entry, in nM.

Data request: Fill blank: measured concentration at 3 day of CLT dosing of the compound `OC(c1ccccc1)(c1ccccc1)c1ccccc1Cl` is ____.
Data returned: 1100

====

test_description: clinical
Assay type: in vivo
condition_context: human, plasma, oral, 500 mg; Subject A, Wash-out day 13; read-out: Levels Plasma
quantity_kind: concentration at 13 day (wash-out) (µM)
Give bare numbers, in µM.

Data request: Fill blank: measured concentration at 13 day (wash-out) of the compound OC(c1ccccc1)(c1ccccc1)c1ccccc1Cl [Compound 6, 2-chlorophenyl-diphenylmethanol] is ____.
Data returned: 0

====

test_description: clinical
Format: in vivo
condition_context: human, in vivo, 500 mg; Subject B, Wash-out day 10; read-out: Levels Plasma
quantity_kind: concentration at 10 day (wash-out)

Data request: Fill blank: measured concentration at 10 day (wash-out) of the compound Clc1ccccc1C(c1ccccc1)c1ccccc1 [Compound 17, 2-chlorophenyl-diphenylmethane] is ____.
Data returned: < 100 nM
